pIC50: −log10 of the molar value.
Mu-type opioid receptor (Cavia porcellus) pIC50 data
Sequence (P97266 whole entry): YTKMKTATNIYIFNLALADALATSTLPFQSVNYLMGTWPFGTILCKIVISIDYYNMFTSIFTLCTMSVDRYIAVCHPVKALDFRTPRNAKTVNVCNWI

Name the reported pIC50 value associated with the compound Cc1cc(O)cc(C)c1[C@H](C)[C@@H](N)C(=O)N1Cc2ccccc2C[C@H]1C(=O)O
< 4.10

Subsequent entry: Cc1cc(O)cc(C)c1[C@@H](C)[C@H](N)C(=O)N1Cc2ccccc2C[C@H]1C(=O)O
4.46

Follow-up entry: Cc1cc(O)cc(C)c1[C@@H](C)[C@@H](N)C(=O)N1Cc2ccccc2C[C@H]1C(=O)O
< 4.10

Lookup Cc1cc(O)cc(C)c1[C@H](C)[C@H](N)C(=O)N1Cc2ccccc2C[C@H]1C(=O)O
< 4.10
